- measured on: T1, full-length beta-Catenin (Uniprot ID P35222) (Homo sapiens (Human), UniProt P35222 1-781)
- T1 construct: also called bCat; B-Catenin
- T1 sequence: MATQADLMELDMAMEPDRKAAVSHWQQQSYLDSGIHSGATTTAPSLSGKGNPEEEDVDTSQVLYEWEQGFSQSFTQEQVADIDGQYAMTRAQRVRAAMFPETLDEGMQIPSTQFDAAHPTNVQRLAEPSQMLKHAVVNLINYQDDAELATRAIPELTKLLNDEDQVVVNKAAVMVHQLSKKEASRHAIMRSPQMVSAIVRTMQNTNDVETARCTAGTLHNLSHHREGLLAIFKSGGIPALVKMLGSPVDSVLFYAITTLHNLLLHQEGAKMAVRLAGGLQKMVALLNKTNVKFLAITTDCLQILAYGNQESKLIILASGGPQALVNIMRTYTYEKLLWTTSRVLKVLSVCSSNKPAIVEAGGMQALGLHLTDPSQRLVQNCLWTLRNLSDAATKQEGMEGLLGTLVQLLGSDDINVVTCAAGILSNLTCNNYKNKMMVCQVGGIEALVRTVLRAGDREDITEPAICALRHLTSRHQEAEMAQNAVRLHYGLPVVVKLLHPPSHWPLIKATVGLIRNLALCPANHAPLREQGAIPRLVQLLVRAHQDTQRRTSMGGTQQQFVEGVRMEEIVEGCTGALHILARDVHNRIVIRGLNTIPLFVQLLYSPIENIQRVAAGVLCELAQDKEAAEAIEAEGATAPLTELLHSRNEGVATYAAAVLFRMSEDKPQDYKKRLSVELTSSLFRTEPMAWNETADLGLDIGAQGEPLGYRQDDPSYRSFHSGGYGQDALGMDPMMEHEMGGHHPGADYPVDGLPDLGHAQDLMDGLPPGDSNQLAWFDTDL
- assay procedure: fluorescence polarization competition; full-length beta-catenin, competitor 5FAM-TCF4(10-53) probe
Starred links: 1 amine or outer side, 2 acyl side, 3 side chain; linkers in the order of their positions; H or OH if unused. Positions of bridges follow the written chain, without caps; N, C: chain ends. Non-standard residues stand in square brackets, D forms with d. Primed or numbered codes have the meaning given here. PyrS3″ = (S)-3-amino-1-((hex-5-en-1-yloxy)carbonyl)pyrrolidine-3-carboxylic acid (stapling residue), C=CCCCCOC(=O)N1CC[C@@](N[*:1])(C(=O)[*:2])C1; B5(21) = 2-amino-2-(pent-4-en-1-yl)hept-6-enoic acid, bis(4-pentenyl)glycine (stitching residue), C=CCCCC(CCCC=C)(N[*:1])C(=O)[*:2]; B5(6) = 2-amino-2-(pent-4-en-1-yl)hept-6-enoic acid (bis(4-pentenyl)glycine), stitching residue, C=CCCCC(CCCC=C)(N[*:1])C(=O)[*:2]; Phe(2-NO2) = N[C@@H](Cc1ccccc1[N+](=O)[O-])C(=O)O; Phe(3-F) = N[C@@H](Cc1cccc(F)c1)C(=O)O; Phe(2-F) = N[C@@H](Cc1ccccc1F)C(=O)O; Bta = N[C@@H](Cc1csc2ccccc12)C(=O)O; αAllylPro = C=CC[C@@]1(C(=O)O)CCCN1; 2Thi = N[C@@H](Cc1cccs1)C(=O)O; S8 = C=CCCCCCC[C@](C)(N)C(=O)O
I'd appreciate it if you marked entries 1.0 when IC50 is lower than 100 nM and 0.0 when it is not.

binder	assigned label
Ac-[αAllylPro]DA[B5(21)]DEAA[Phe(2-F)]N[S8]F[Bta]Q-NH2 (staple 1-4, 4-11, Stapled peptide composition) [I-453]	0.0
Ac-[αAllylPro]DA[B5(21)]DEAAFN[PyrS3″]F[Bta]Q-NH2 (staple 1-4, 4-11; not fully specified; printed as Ac-PL3-Asp-Ala-B5-Asp-Glu-Ala-Ala-Phe-Asn-PyrS3-Phe-BztA-Gln-NH2, Stapled peptide; later-eluting HPLC peak (staple isomer composition)) [I-464]	1.0
Ac-[αAllylPro]DI[B5(6)]DDAAFN[S8]F[Bta]H-NH2 (staple 1-4, 4-11; also: staple isomer composition: earlier-eluting HPLC peak, Stapled peptide; earlier-eluting HPLC peak (staple isomer composition)) [I-469]	1.0
Ac-[αAllylPro]DA[B5(21)]DEAAFN[PyrS3″]F[Bta]Q-NH2 (staple 1-4, 4-11; also: earlier-eluting HPLC staple isomer, Stapled peptide; earlier-eluting HPLC peak (staple isomer composition)) [I-463]	1.0
Ac-[αAllylPro]DA[B5(21)]DEAA[2Thi]Q[S8][Phe(3-F)]WQ-NH2 (staple 1-4, 4-11, Stapled peptide composition) [I-450]	0.0
Ac-[αAllylPro]DA[B5(21)]DEAAFN[S8][Phe(2-NO2)][Bta]Q-NH2 (staple 1-4, 4-11, Stapled peptide composition) [I-441]	0.0
